Below, each entry is listed alongside its reported Population Hoechst High Intensity Objects (%).
System: Fibroblast
method notes: Multiplex assay against human fibroblast
Type: toxicity, cell-based
measurement context: 24 h, 1 µM, compound concentration 1 uM, replicate 1
assay endpoint: Population Hoechst High Intensity Objects (%)

In [3]: df
Out[3]:
                                   compound  tested_target  endpoint_value
0  CCCCCNC(=N)N/N=C/c1c[nH]c2ccc(OC)cc12.O=C(O)/C=C\C(=O)O [TEGASEROD MALEATE]     Fibroblast              10
1  CC[C@H](Nc1ncnc2[nH]cnc12)c1nc2cccc(F)c2c(=O)n1-c1ccccc1     Fibroblast              12
2  C[C@@H](Oc1cc(-n2cnc3ccc(CN4CCN(C)CC4)cc32)sc1C(N)=O)c1ccccc1C(F)(F)F     Fibroblast              17
3     COc1cc(Nc2ccnc3ccc(Br)cc23)cc(OC)c1OC     Fibroblast              15
4  Cc1ccc(S(=O)(=O)NC2c3ccccc3Oc3ccccc32)cc1     Fibroblast              19
5  CN1C(=O)[C@@H](NC(=O)c2cc3ccccc3[nH]2)N=C(c2ccccc2)c2ccccc21 [DEVAZEPIDE]     Fibroblast              13
6  Cc1c(Nc2ccc(S(=O)(=O)N3CCN(C)CC3)cc2F)nc2ccc(Nc3cnn(C4CC4)c3)cn2c1=O     Fibroblast              12
7  CC[C@@H]1C(=O)N(C)c2cnc(Nc3ccc(C(=O)NC4CCN(C)CC4)cc3OC)nc2N1C1CCCC1     Fibroblast              18
8  NC(=O)c1ccc2nc(-c3ccc(C4(N)CCC4)cc3)c(-c3ccccc3)n2n1     Fibroblast              41
9  N#CCNC(=O)c1ccc(-c2ccnc(Nc3ccc(N4CCOCC4)cc3)n2)cc1     Fibroblast              11

====

Test system: HEK-293T
method notes: Multiplex assay against HEK293T
Type: toxicity, cell-based
measurement context: human, 12 h, 10 µM, compound concentration 10 uM, replicate 2
Population Hoechst High Intensity Objects (%) reference
assay endpoint: Population Hoechst High Intensity Objects (%)

                                   compound  endpoint_value
0  Cc1c(P(=S)(c2ccccc2)c2ccccc2)n2ccccc2[n+]1C/C=C/c1ccccc1.[Br-]              14
1  NC(=O)c1ccc2nc(-c3ccc(C4(N)CCC4)cc3)c(-c3ccccc3)n2n1               2
2  CN1C(=O)[C@@H](NC(=O)c2cc3ccccc3[nH]2)N=C(c2ccccc2)c2ccccc21 [DEVAZEPIDE]               3
3  CC(C)c1cc(Nc2nc(N3CCC[C@H](N)C3)ncc2C(N)=O)cc(C(C)C)n1               5

====

Tested on: HEK-293T
method notes: Multiplex assay against HEK293T
Format: toxicity, cell-based
measurement context: human, 48 h, 1 µM, compound concentration 1 uM, replicate 1
assay endpoint: Population Mitochondria Different-Phenotype (%)

>>> df
                                    compound  endpoint_value
 0  CCCCCNC(=N)N/N=C/c1c[nH]c2ccc(OC)cc12.O=C(O)/C=C\C(=O)O [TEGASEROD MALEATE]              38
 1  CCCc1cc(C)[nH]c(=O)c1CNC(=O)c1cc(-c2ccc(N3CCN(C(C)C)CC3)nc2)cc2c1cnn2C(C)C              96
 2  CC(C)c1cc(Nc2nc(N3CCC[C@H](N)C3)ncc2C(N)=O)cc(C(C)C)n1              85
 3  Cl.NC[C@@H]1O[C@H](C23CC4CC(CC(C4)C2)C3)Cc2c1ccc(O)c2O               5
 4  Oc1cccc(-c2nc(N3CCOCC3)c3oc4ncccc4c3n2)c1              72
 5  CN1C(=O)[C@@H](NC(=O)c2cc3ccccc3[nH]2)N=C(c2ccccc2)c2ccccc21 [DEVAZEPIDE]              48
 6  CN(c1cc(C(F)(F)F)nc(OCCC(=O)O)n1)c1cccc2c1CCC2              22
 7  CC(Cc1ccc(O)c(O)c1)C(C)Cc1ccc(O)c(O)c1 (stereo not drawn) [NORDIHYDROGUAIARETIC ACID]              19
 8  CC(C)[C@H](CO)Nc1nc(Nc2cccc(Cl)c2)c2ncn(C(C)C)c2n1              46
 9  CCCCN(CC)c1nc(C)nc2c1c(C)cn2-c1c(C)cc(C)cc1C.Cl              26
10  C[C@@H](Oc1cc(-n2cnc3ccc(CN4CCN(C)CC4)cc32)sc1C(N)=O)c1ccccc1C(F)(F)F              95
11  N#CCNC(=O)c1ccc(-c2ccnc(Nc3ccc(N4CCOCC4)cc3)n2)cc1              16
12  Cc1c(P(=S)(c2ccccc2)c2ccccc2)n2ccccc2[n+]1C/C=C/c1ccccc1.[Br-]               0
13  Cc1ccc(S(=O)(=O)NC2c3ccccc3Oc3ccccc32)cc1              26
14  N#Cc1cccc(C(=O)Nc2cc(-c3ccccc3)nn2-c2ccccc2)c1              29
15  C=CC(=O)Nc1cc(-n2c(=O)ccc3cnc4ccc(-c5ccc(NS(C)(=O)=O)cc5)cc4c32)ccc1C              40
16  CC(C)C[C@H](NC(=O)[C@H](Cc1ccccc1)NC(=O)CNC(=O)CNC(=O)[C@@H](N)Cc1ccc(O)cc1)C(=O)O              26
17  CC(/C=C1\SC(=S)N(CCCC(=O)Nc2ccc(C(=O)O)c(O)c2)C1=O)=C\c1ccccc1              24

====

Catalogue of Population Normal (%) values
Tested on: HEK-293T
method notes: Multiplex assay against HEK293T
Format: toxicity, cell-based
measurement context: human, 12 h, 10 µM, compound concentration 10 uM, replicate 2
assay endpoint: Population Normal (%)

>>> df
                                    molecule  endpoint_value
 0  CCCCCNC(=N)N/N=C/c1c[nH]c2ccc(OC)cc12.O=C(O)/C=C\C(=O)O [TEGASEROD MALEATE]              70
 1  N#CCNC(=O)c1ccc(-c2ccnc(Nc3ccc(N4CCOCC4)cc3)n2)cc1 [MOMELOTINIB]              94
 2  N#Cc1cccc(C(=O)Nc2cc(-c3ccccc3)nn2-c2ccccc2)c1              94
 3  Cl.Cn1c2c(c3ccc(Cl)c(Cl)c31)C(C#N)C1(CCNCC1)NC2=O (configuration not stated)              95
 4  C[C@@H](Oc1cc(-n2cnc3ccc(CN4CCN(C)CC4)cc32)sc1C(N)=O)c1ccccc1C(F)(F)F [GSK-461364]              89
 5  CCOc1ccn(-c2ccc(F)cc2)c(=O)c1C(=O)Nc1ccc(Oc2ccnc(N)c2Cl)c(F)c1 [BMS-777607]              97
 6  CC(Cc1ccc(O)c(O)c1)C(C)Cc1ccc(O)c(O)c1 (configuration not stated) [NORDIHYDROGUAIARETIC ACID]              95
 7  CC(/C=C1\SC(=S)N(CCCC(=O)Nc2ccc(C(=O)O)c(O)c2)C1=O)=C\c1ccccc1              98
 8  Oc1cccc(-c2nc(N3CCOCC3)c3oc4ncccc4c3n2)c1 [PI-103]              93
 9  C=CC(=O)Nc1cc(-n2c(=O)ccc3cnc4ccc(-c5ccc(NS(C)(=O)=O)cc5)cc4c32)ccc1C              91
10  CN1C(=O)[C@@H](NC(=O)c2cc3ccccc3[nH]2)N=C(c2ccccc2)c2ccccc21 [DEVAZEPIDE]              96
11  CCOC(=O)CCNc1cc(N2CCc3ccccc3CC2)nc(-c2ccccn2)n1              95
12  Cc1c(Nc2ccc(S(=O)(=O)N3CCN(C)CC3)cc2F)nc2ccc(Nc3cnn(C4CC4)c3)cn2c1=O              97
13  CC[C@H](Nc1ncnc2[nH]cnc12)c1nc2cccc(F)c2c(=O)n1-c1ccccc1 [IDELALISIB]              97
14  Cl.NC[C@@H]1O[C@H](C23CC4CC(CC(C4)C2)C3)Cc2c1ccc(O)c2O              88
15  Cc1c(P(=S)(c2ccccc2)c2ccccc2)n2ccccc2[n+]1C/C=C/c1ccccc1.[Br-]              85
16  CCCc1cc(C)[nH]c(=O)c1CNC(=O)c1cc(-c2ccc(N3CCN(C(C)C)CC3)nc2)cc2c1cnn2C(C)C              91
